STUDY_TARGET: glucose-6-phosphate dehydrogenase-6-phosphogluconolactonase (Plasmodium falciparum 3D7)
TEST_DESCRIPTION: PfG6PD enzyme inhibitors, kinetic NADPH readout, dose response, orthogonal assay, biochemical, kinetic NADPH detection (AID 540269)
MEASUREMENT_PARAMETERS: purified PfG6PD-6PGL
Activity calls are given as the source filed them. How the calls were made is not given here.
Your reply should match one of these outcome classes. active, inactive

I'd appreciate the recorded outcome for O=C(CNC(=O)c1ccco1)OCC(=O)c1ccc([N+](=O)[O-])cc1 from this test.
active

Dear all, I need the recorded test outcome for CCOc1ccc(CNc2ccc(N3CCCC3)cc2)cc1 , thank you.
inactive

Recorded call for CCN1CCCC1CNC(=O)c1ccc2c(c1)NC(=O)/C(=C\c1ccccc1F)S2 (stereo not drawn) ?
active

Which result was noted for this compound in the test: CN(C)c1ccc(/C=C/c2ccc3c4ccccc4ccc3[n+]2-c2ccccc2)cc1
active

Hello, I am checking results. What call was entered for N#Cc1ccc2c(=O)n(-c3ccccc3)sc2c1 ?
active

Which outcome did this test record for the compound CC(C)Sc1nnc(NC(=O)c2ccc3c(c2)OCO3)s1 ?
active

Name the outcome recorded for Cc1ccc(CNc2ccc(O)cc2)cc1 in the assay.
active

Status in this test for CCN1CCN(c2nc(C)nc3c2sc(=S)n3C)CC1 ?
inactive

# fetch the recorded call for O=C1CCN(c2ccccc2)N1 here
inactive

Status in this test for COc1ccc(CCn2c(NN=C3CCCCC3)nc3c2c(=O)[nH]c(=O)n3C)cc1 ?
inactive

Record request — test call for O=[N+]([O-])c1cnc(Sc2ccncn2)c([N+](=O)[O-])c1
active

Tell me the assay call for COC(=O)[C@H](CCSC)NC(=O)c1cc2c(cn1)[nH]c1ccccc12 please.
active

Which outcome was entered for the compound CC(SCC(=O)Nc1ccccc1)c1nc2ccccc2c(=O)[nH]1 (stereo not drawn) in this test?
inactive

---

Exercise: for every item that follows, state its recorded IC50.
STUDY_TARGET: glucose-6-phosphate dehydrogenase-6-phosphogluconolactonase (Plasmodium falciparum 3D7)
TEST_DESCRIPTION: PfG6PD enzyme inhibitors, kinetic NADPH readout, dose response, orthogonal assay, biochemical, kinetic NADPH detection (AID 540269)
MEASUREMENT_PARAMETERS: purified PfG6PD-6PGL
Calls of active or inactive are those of the source. No rule for the calls is given here.

Looking for the measured IC50 of COc1cccc(-c2c(C(=O)N/N=C/c3ccc(C)s3)nnn2-c2nonc2N)c1 , can you help?
53.5 µM

What measured IC50 goes with O=C(Nc1nnc(S(=O)(=O)N2CCOCC2)s1)c1ccc(F)cc1 ?
56.9 µM

Please report the recorded IC50 for COc1cc(/C=C2\SC(c3ccc(C)cc3)=NC2=O)cc(OC)c1O .
> 80 µM (inactive)

Any idea what its IC50 is? The compound is COc1cccc(C(=O)Nc2nnc(S(=O)(=O)N(C)Cc3ccccc3)s2)c1
18.6 µM

Which value of IC50 has been reported for O=C(Nc1sc2c(c1C(=O)O)CCC2)c1ccc(F)cc1 in the records?
41.3 µM

Query: IC50; subject: COc1ccc(C(=O)/C=C2\Sc3ccccc3N2C)cc1
43.4 µM

Reported IC50 for CNCc1ccccc1Sc1cc(O)ccc1O : what is it?
54.5 µM

Record request: IC50 value, item O=c1c2ccccc2sn1-c1nccs1
23.1 µM

Field request: IC50 | item: COc1cccc(CNc2ccc3[nH]c(=O)[nH]c3c2)c1OCc1ccccc1Cl
> 80 µM (inactive)

Please look up its IC50: O=C(CNC(=O)c1cccs1)NCC(=O)OCC(=O)c1ccc([N+](=O)[O-])cc1
62.9 µM

Which value of IC50 has been reported for CN1CCN(C(=S)c2ccc([N+](=O)[O-])cc2)CC1 in the records?
> 80 µM (inactive)

Name the recorded IC50 for c1cc2c(cc1NC1CCCCCC1)OCO2 .
> 80 µM (inactive)

Give its IC50 value. Item: Cc1ccc(-c2csc(NC(=O)c3ccccc3F)c2C(=O)O)cc1
53.7 µM
